From: the NTF2 design screens of Basanta et al. (2020)

Experiment notes: protease stability score; higher = more stable; yeast display proteolysis, trypsin and chymotrypsin;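 note: log10 excess protease needed over predicted unfolded state with 0 meaning unfolded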
Everything with protease stability score lower than 0.8 is not fulfilled; everything else, including exactly 0.8, is fulfilled.

Inquiry: Does the sequence DEDAVKAYERLLTAWNHGDPDQAKHQVDPNVRVQVGDKQIHGREELARQIERRRREANIHNQLEDYRDNGEEIQLHVEVTEDHNGNPDTKTYTAYAQFTNGKMQELTINDHG have recorded protease stability score that is 0.8 or more?
Reply text: not fulfilled

Inquiry: Could you do the same for DEENVKKVQEQLERNDREKLKSNVDKNAEVRVGDKTYHGREDAKTVLEQLARQVDNMQWQSIRIKGEHIDAKMVVQINGKHIQVSIELTVHNGKISHFVIHARNEEVNETLKEAVD , please?
Reply text: not fulfilled

***
Inquiry: Does the sequence DDTMIRRLTEWWRAFEHNNSNQMKELADPNAKFSYGDKTVTGMDDIAKQLVNEAREMRVEIRHMKVEQHGEKVRVDFEYEIRDNGRPHTNRVVLEAHQHNGKIQSVQVKDDR have recorded protease stability score that is 0.8 or more?
Reply text: not fulfilled

Inquiry: Could you do the same for EEDLLRKLSKILHQQDTGNEETVEKNADPNARFEVGDHKIHGMDQAAREIASKIREIRQEKRIESVSVHGNKMQIHFTFTQEKNGQPQTRRATMVVVMSNGKIKSMKVQYDK , please?
Reply text: not fulfilled

Inquiry: Could you do the same for DERVKSQATEFVTALKRNDEKRLMELADKDVSVRYGDKVVHGRERVRETARHITEESRVEYDTVRVDVQGNQANVEMEATFDHNGKPDRAKVNIQINFHNGKIKRVRIDKKP , please?
Reply text: fulfilled
